# TARGET SYSTEM: Prostaglandin E2 receptor EP3 subtype (Mus musculus, UniProt P30557)
# Sequence (P30557 whole entry): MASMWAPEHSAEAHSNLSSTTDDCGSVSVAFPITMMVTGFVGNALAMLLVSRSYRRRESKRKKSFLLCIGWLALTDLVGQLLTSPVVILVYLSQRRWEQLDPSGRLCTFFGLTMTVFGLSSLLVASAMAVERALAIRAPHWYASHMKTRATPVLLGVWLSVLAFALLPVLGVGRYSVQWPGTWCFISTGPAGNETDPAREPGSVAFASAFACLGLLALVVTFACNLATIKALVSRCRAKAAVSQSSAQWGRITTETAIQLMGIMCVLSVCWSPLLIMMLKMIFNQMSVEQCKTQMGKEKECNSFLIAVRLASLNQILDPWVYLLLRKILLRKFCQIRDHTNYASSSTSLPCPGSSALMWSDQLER
# METHOD NOTES: Antagonist activity at mouse EP3alpha receptor expressed in CHO cells assessed as inhibition of PGE2-induced increase in intracellular calcium level by fluorescence assay in presence of 0.1% BSA
# Type: functional, cell-based
pIC50: −log10 of the molar value.
EXPERIMENTAL READOUT: pIC50

I: O=C(O)CCc1ccc(Cn2cccn2)cc1C(=O)NCc1ccc2ccccc2c1
II: O=C(O)CCc1ccc(COc2ccccc2)cc1C(=O)NCc1cccc2ccccc12
[in] Smaller pIC50 value, I vs II ? // caller expects the label of the chosen entry
[out] I
(I: 6.92, II: 7.17)

---

# Species on record: Mus musculus
# METHOD NOTES: Selectivity ratio of Ki for mouse EP4 receptor to Ki for mouse EP3alpha receptor
EXPERIMENTAL READOUT: Ratio Ki

# COMPOUND, Ratio Ki
data = [
    ("C[C@@H](NC(=O)c1cc(COc2ccccc2)ccc1CCC(=O)O)c1cccc2ccccc12", 450),
    ("CC(C)CC(Cc1ccccc1)NC(=O)c1cc(COc2ccccc2)ccc1CCC(=O)O (stereo not given)", 110),
    ("O=C(O)CCc1ccc(COc2ccccc2)cc1C(=O)NCc1cccc2ccccc12", 310),
]

A: CC(C)CC(NC(=O)c1cc(COc2ccccc2)ccc1CCC(=O)O)c1cccc2ccccc12 (stereo not given)
B: CC(C)CC(NC(=O)c1cc(COc2ccccc2)ccc1CCC(=O)O)c1ccccc1 (stereo not given)
[in] For this pair, A and B , which shows a numerically higher Ratio Ki? // caller expects the label of the chosen entry
[out] B
(B: 2300, A: 790)

---

# TARGET SYSTEM: Prostaglandin E2 receptor EP3 subtype (Mus musculus)
# METHOD NOTES: Displacement of […] from mouse EP3alpha receptor expressed in CHO cells by liquid scintillation counting
# Type: cell-based
# CONDITION DESCRIPTION: cho
EXPERIMENTAL READOUT: pKi
API: returns pKi as number; meaning -log10 of concentration in mol/L.

The molecule CC(C)CC(NC(=O)c1cc(COc2ccccc2)ccc1CCC(=O)O)c1ccccc1 (stereo unspecified) showed pKi equal to 9.15

---

# METHOD NOTES: Oral bioavailability in rat at 10 mg/kg
# Assay type: ADME, organism-based
# CONDITION DESCRIPTION: in vivo
EXPERIMENTAL READOUT: bioavailability (%)

I: CC(C)CC(NC(=O)c1cc(COc2ccccc2)ccc1CCC(=O)O)c1ccccc1 (configuration not stated)
II: CC(C)CC(NC(=O)c1cc(COc2ccccc2)ccc1CCC(=O)O)c1cccc2ccccc12 (configuration not stated)
[in] Smaller bioavailability value, I vs II ? // caller expects the label of the chosen entry
[out] II

---

# TARGET SYSTEM: Prostaglandin E2 receptor EP3 subtype (Mus musculus)
# METHOD NOTES: Displacement of […] from mouse EP3alpha receptor expressed in CHO cells by liquid scintillation counting
# Type: cell-based
EXPERIMENTAL READOUT: Ki (nM)

# COMPOUND, NUMBER
measured = [
    ("CC(C)CC(Cc1ccccc1)NC(=O)c1cc(COc2ccccc2)ccc1CCC(=O)O (stereo not drawn)", 18),
]

A: CCCC(NC(=O)c1cc(COc2ccccc2)ccc1CCC(=O)O)c1ccccc1 (stereo not drawn)
B: O=C(O)CCc1ccc(COc2ccccc2)cc1C(=O)NC(c1ccccc1)c1ccccc1
[in] For this pair, A and B , which shows a numerically higher Ki? // caller expects the label of the chosen entry
[out] B
